target: T1, human CD40 on cells (human, UniProt P25942 21-277); test: FACS, Raji cells
T1 construct: whole, on cells; The cell line used is named in each row's assay; also called hCD40; TNFRSF5
T1 sequence (P25942 21-277): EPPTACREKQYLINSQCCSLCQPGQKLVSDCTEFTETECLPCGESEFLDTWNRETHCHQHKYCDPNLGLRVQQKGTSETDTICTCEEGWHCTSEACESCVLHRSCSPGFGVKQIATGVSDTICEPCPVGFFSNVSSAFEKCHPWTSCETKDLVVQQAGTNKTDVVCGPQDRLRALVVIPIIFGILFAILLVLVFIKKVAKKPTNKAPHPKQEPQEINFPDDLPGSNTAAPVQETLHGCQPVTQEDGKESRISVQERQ
Entries and their EC50

{"columns": ["BINDER", "EC50, nM"],
 "data": [
  ["PR006493 (antibody, human IgG1, kappa, V domains shown, PR003379 variant L:N92L; human IgG1 L234A, L235A, G237A) VH: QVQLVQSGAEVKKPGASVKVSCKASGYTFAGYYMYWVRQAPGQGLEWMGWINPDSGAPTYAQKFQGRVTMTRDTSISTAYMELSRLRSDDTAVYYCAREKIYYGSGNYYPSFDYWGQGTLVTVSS VL: DIQLTQSPSFLSASVGDRVTITCRASQGISSYLAWYQQKPGKAPKLLIYAASTLQSGVPSRFSGSGSGTEFTLTISSLQPEDFATYYCQQLLSYPWTFGQGTKVEIKR", 0.377],
  ["PR006510 (antibody, human IgG1, kappa, V domains shown, PR003379 variant L:S93R; human IgG1 L234A, L235A, G237A) VH: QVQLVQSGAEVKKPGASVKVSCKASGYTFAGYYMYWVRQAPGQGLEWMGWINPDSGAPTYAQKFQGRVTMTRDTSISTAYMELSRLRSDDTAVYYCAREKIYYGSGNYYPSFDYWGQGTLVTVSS VL: DIQLTQSPSFLSASVGDRVTITCRASQGISSYLAWYQQKPGKAPKLLIYAASTLQSGVPSRFSGSGSGTEFTLTISSLQPEDFATYYCQQLNRYPWTFGQGTKVEIKR", 0.376],
  ["PR006494 (antibody, human IgG1, kappa, V domains shown, PR003379 variant L:N92T; human IgG1 L234A, L235A, G237A) VH: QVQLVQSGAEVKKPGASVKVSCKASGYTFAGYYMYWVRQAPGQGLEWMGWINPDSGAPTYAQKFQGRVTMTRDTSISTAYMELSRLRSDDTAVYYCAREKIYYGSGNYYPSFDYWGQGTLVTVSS VL: DIQLTQSPSFLSASVGDRVTITCRASQGISSYLAWYQQKPGKAPKLLIYAASTLQSGVPSRFSGSGSGTEFTLTISSLQPEDFATYYCQQLTSYPWTFGQGTKVEIKR", 0.328]
]}
